Overview of reported Activity across a group of molecules:
# Study target: Adenosine receptor A1 (Homo sapiens) (UniProt P30542)
# Sequence (P30542 whole entry): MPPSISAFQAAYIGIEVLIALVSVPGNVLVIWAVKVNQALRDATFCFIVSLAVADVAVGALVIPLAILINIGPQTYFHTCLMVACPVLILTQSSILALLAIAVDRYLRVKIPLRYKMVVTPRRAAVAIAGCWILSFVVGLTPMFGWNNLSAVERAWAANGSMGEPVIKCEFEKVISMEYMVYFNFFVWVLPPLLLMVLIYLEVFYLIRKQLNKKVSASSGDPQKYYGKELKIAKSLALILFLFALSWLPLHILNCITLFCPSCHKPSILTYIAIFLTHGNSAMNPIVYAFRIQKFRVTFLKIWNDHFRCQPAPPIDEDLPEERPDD
# Method notes: Allosteric modulation of human adenosine A1 receptor transfected in CHO FlpIn cells assessed as orthosteric agonist R-PIA-mediated ERK1/2 phosphorylation at 3 uM pretreated 30 mins before R-PIA challenge measured after 1.5 hrs by fluorescence assay
# Assay type: functional, cell-based
Please append the unit to your numeric answer.

>  <Mol smiles>
Nc1scc(-c2cccc(F)c2)c1C(=O)c1ccc(Cl)cc1

>  <Activity>
76%

$$$$
>  <Mol smiles>
Nc1scc(-c2ccc(I)cc2)c1C(=O)c1ccc(Cl)cc1

>  <Activity>
54%

$$$$

### Prompt Please look up its Activity: `Nc1scc(-c2ccc([N+](=O)[O-])cc2)c1C(=O)c1ccccc1`
### Response 50%

### Prompt Item: `Nc1scc(-c2cccc(Br)c2)c1C(=O)c1ccccc1`
### Response 67%

### Prompt Item: `Nc1scc(-c2ccc(F)cc2)c1C(=O)c1ccccc1`
### Response 51%

### Prompt Item: `COc1ccc(-c2csc(N)c2C(=O)c2ccccc2)cc1`
### Response 52%

### Prompt Item: `Nc1scc(-c2ccc(Br)cc2)c1C(=O)c1ccccc1`
### Response 46%

### Prompt Item: `Nc1scc(-c2cccc([N+](=O)[O-])c2)c1C(=O)c1ccccc1`
### Response 47%

### Prompt Item: `Nc1scc(-c2ccccc2F)c1C(=O)c1ccccc1`
### Response 55%

### Prompt Item: `Nc1scc(-c2ccccc2)c1C(=O)c1ccccc1`
### Response 49%

### Prompt Item: `Nc1scc(-c2cccc(Br)c2)c1C(=O)c1ccc(Cl)cc1`
### Response 62%

### Prompt Item: `Nc1scc(-c2ccc(Cl)cc2)c1C(=O)c1ccc(Cl)cc1`
### Response 50%
